Target: MtrC (Shewanella oneidensis)
Construct: native outer-membrane decaheme cytochrome in intact living cells (monolayer biofilm on ITO electrode), not purified
Sequence (Q8EG34 entry or part of it): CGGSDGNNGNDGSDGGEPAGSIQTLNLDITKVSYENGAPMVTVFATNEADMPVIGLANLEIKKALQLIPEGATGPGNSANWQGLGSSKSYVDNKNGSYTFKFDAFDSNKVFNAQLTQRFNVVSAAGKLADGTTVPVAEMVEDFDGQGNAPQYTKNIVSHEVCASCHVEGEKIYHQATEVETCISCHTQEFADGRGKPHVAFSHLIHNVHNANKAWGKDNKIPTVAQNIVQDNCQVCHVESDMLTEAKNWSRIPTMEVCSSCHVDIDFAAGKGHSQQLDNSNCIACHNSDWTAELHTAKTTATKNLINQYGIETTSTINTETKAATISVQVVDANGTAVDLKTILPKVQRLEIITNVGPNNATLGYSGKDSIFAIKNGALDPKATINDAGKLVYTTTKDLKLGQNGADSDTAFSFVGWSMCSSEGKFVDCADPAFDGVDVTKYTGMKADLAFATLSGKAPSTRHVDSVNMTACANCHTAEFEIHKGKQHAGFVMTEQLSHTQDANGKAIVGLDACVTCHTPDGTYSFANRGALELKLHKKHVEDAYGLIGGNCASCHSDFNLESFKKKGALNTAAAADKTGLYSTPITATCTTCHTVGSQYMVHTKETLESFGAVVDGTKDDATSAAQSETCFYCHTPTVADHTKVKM
Experiment: whole-cell differential pulse voltammetry
Details: rough estimate in living wild-type MR-1 monolayer biofilm; printed for FMN and OM c-Cyts collectively, assigned to MtrC by gene deletions; saturation assumed at 52 μM FMN; semiquinone form bound under
pKd: −log10 of the molar value.
assayReadout: pKd

query: What pKd value was documented for this molecule, Cc1cc2nc3c(=O)[nH]c(=O)nc-3n(C[C@H](O)[C@H](O)[C@H](O)COP(=O)(O)O)c2cc1C [FMN, flavin mononucleotide] ?
result: ~5.00
